Reference source: ChEMBL document CHEMBL1201862

Tested on: M14
Experimental Protocol: NCI tumour cell line growth inhibition, 48 h
Calls of active or inactive are those of the source. Cut-off read from the data, not from the text of the source: active = GI50 up to about 1.1 µM and inactive = higher.
Output constraint: value belongs to true (active), false (inactive)

Hello, I am checking results. What call was entered for CC(C)c1cccc2sc(NC(=O)C(=O)C(C#N)c3cccc4ccccc34)nc12 (centres undefined) ?
false

Then what about the molecule CCC1(O)C[C@H]2CN(CCCc3c([nH]c4ccccc34)[C@@](C(=O)OC)(c3cc4c(cc3OC)N(C)C3[C@](O)(C(=O)OC)[C@H](OC(C)=O)[C@]5(CC)C=CCN6CC[C@]43[C@H]65)C2)C1 (some centres undefined) ?
true

Same for CC(C)=CCC(O)C1=CC(=O)c2c(O)ccc(O)c2C1=O (centres undefined)
false

Query `CC(=O)OCCOCCN1CCN(C2=C(Cl)C(=O)c3c(O)ccc(O)c3C2=O)CC1` next
true

---

Provide the reported GI50 of each item.
Test system: Hs-578T
Experimental Protocol: NCI tumour cell line growth inhibition, 48 h
Active and inactive are the calls of the source. No stated cut-off is given here; in the data, active = GI50 up to about 1.1 µM and inactive = higher.

State the recorded GI50 for this entry: COc1ccc(CC2Cc3ccccc3CCN2)cc1OC (stereo not given)
23.8 µM (inactive)

# iterate: `Cc1cc(=O)n2nc(CN3CCCCC3)sc2n1`
> 100 µM (inactive)

How about this compound: `c1csc(-c2cc(-c3ccsc3)c(-c3ccsc3)s2)c1`
> 100 µM (inactive)

Request: `C/C(=N/Nc1nc(C)cc(O)n1)C(=O)O`
> 100 µM (inactive)

Can you handle COC(=O)C1(Cc2ccccc2)Cc2ccc3c(c2C1=O)CCC3 (stereo not given) next?
3.95 µM (inactive)

Could you do the same for `CCN(CC)Cc1sc2nc3ccccc3n2c1-c1ccc(OC)cc1` , please?
34.9 µM (inactive)

`O=C1C(S(=O)(=O)c2ccccc2)=C(CS(=O)(=O)c2ccccc2)[C@@H](OCc2ccccc2)[C@@H]1OCc1ccccc1` ?
23 µM (inactive)

`O=C(CN(C(=O)OC12CC3CC(CC(C3)C1)C2)C(=O)OC12CC3CC(CC(C3)C1)C2)Oc1ccc([N+](=O)[O-])cc1` , same question.
> 100 µM (inactive)

Query `CC1(C)CCCOc2cccc(c2)OCCCC(C)(C)C1=O` next
39.7 µM (inactive)

One more compound: `O=C1/C(=C/c2ccc(Cl)cc2)N=C(c2ccccc2)N1/N=C/c1ccccc1O`
36.4 µM (inactive)

---

System: TK-10
Experimental Protocol: NCI tumour cell line growth inhibition, 48 h
Calls of active or inactive are those of the source. Rule as the data show it: active = GI50 up to about 1.1 µM and inactive = higher. Bridge positions count the residues as written; N and C are the ends. Square brackets hold non-standard residues; d marks the D form. Peptide text beside a SMILES is read from it. I, II: the chains in the order shown. * marks the point of attachment. Quinoxaline2carbonyl = O=C(c1cnc2ccccc2n1)*; NMeV = CN[CH](C(=O)O)C(C)C; NMeC = CN[CH](CS)C(=O)O
Lab note: assign the record to one of yes (active), no (inactive)

Assay result, entry `C/C(=C\CNc1ncnc2[nH]c(Cl)nc12)CO` — outcome?
no

Field entry: `CCCN1CC=CCC1`
no

Do the same for `CC(=O)/C(=N\N=C(N)N)c1ccccc1` please
no

Now try `OC1=C(c2ccccc2)C2=NCCN2c2ccccc21` .
no

And CCOP(=O)(OCC)C1(O)CC(n2cc(C)c(=O)[nH]c2=O)OC1CO (stereo not given) ?
no

What do you get for `Cc1cc(Br)c(N2C3=C(CC4=C2CCCC4=O)C(=O)CCC3)c(Br)c1` ?
no

Continue with `COc1ccc(/C(C=O)=C(\Cl)c2ccc(OC)c(OC)c2)cc1`
no

Please give the result for `Oc1c(Br)cc(CN(Cc2cc(Br)c(O)c(Br)c2)C2CCCCC2)cc1Br` too.
no

Try this molecule too: CC1NC(=O)C(NC(=O)c2cnc3ccccc3n2)COC(=O)C(C(C)C)N(C)C(=O)C2CSSCC(C(=O)N(C)C(C(C)C)C(=O)OCC(NC(=O)c3cnc4ccccc4n3)C(=O)NC(C)C(=O)N2C)N(C)C1=O (stereo not given) (I: Quinoxaline2carbonyl-SA[NMeC][NMeV] / II: Quinoxaline2carbonyl-SA[NMeC][NMeV]; ester I:1-II:C, I:C-II:1; disulfide I:3-II:3; configuration not given here)
yes

Record: `CCCCCCNC(=S)N/N=C(\C)c1ccccn1`
yes

// repeat for `CN(NC(=O)c1ccco1)C1=NCCN1` and report
no

// repeat for `C1COC(NC(C2CC2)C2CC2)=N1` and report
no

Next up: CC(C)(C)OC(=O)N1CCC23CCCC2C(=O)CC=C13 (stereo not given)
no

Then N#CN1CCC2CC(=O)CCC2C1 (stereo not given) ?
no

Check `O=C(Nc1nc2ncn(CCOC(=O)c3ccccc3)c2c(=S)[nH]1)c1ccccc1` too.
no

Input OCC12C=CC(C1)c1ccccc12 (stereo not given)
no

Try the molecule `CCCN(CCC)C(=S)N/N=C/c1cccc(C)n1`
yes

Would you kindly repeat that for `Cc1cc(C)nc(NS(=O)(=O)c2ccc(Nc3c4ccccc4nc4c(C(=O)Nc5ccc(S(=O)(=O)Nc6cc(C)on6)cc5)cccc34)cc2)n1` ?
no

Another molecule: `C#CCOC(=O)[C@@H](C)c1ccc2cc(OC)ccc2c1`
no

What about BrC1(Br)C2/C=C\CCCCC21 (stereo not given) ?
no

// repeat for `Nc1nc(N)c(/N=N/c2ccc(C(=O)O)c(O)c2)c(N)n1` and report
no

Field entry: `C[Si](C)(OCCS(=O)(=O)O)C1S(=O)(=O)OCCOS1(=O)=O`
no

Do the same for `NC(=S)N/N=C(\CCC(=O)Nc1ccccc1[N+](=O)[O-])CC(=O)c1ccco1` please
no

Same for COc1ccc(C2=NN(C(=O)c3cccnc3)C(O)(c3cc(F)c(Cl)cc3Cl)C2)cc1OC (stereo not given)
no

Consider next the molecule `CC1=NN(c2ccccc2)C(=O)C1=C1SCCS1` in the same way.
no

Moving on to O=C(CC(c1ccccc1)c1c(O)c2ccccc2oc1=O)c1ccccc1 (stereo not given)
no

Note, next up: CC(C)C(Br)C(=O)NCC(=O)O (stereo not given)
no

# repeat for `C/C(=N/CC(=O)O)c1ccccc1`
no

Please answer likewise for O=C1c2c(ccc3c2CCCC3)CC1Cc1ccc2c(c1)CCCC2 (stereo not given)
no

Try the molecule CSc1nc(N)c(NC2OC(CO)C(O)C2O)c(=O)[nH]1 (stereo not given)
no

Entry `c1csc(-c2cc(-c3ccsc3)c(-c3ccsc3)s2)c1` please
no

Ok, now COc1ccc(C23OCC(Cc4cc(OC)c(OC)cc42)C3COC(C)=O)cc1OC (stereo not given)
no

# repeat for COc1cc(C)c2c(c1C=O)Oc1c(c(C)c(O)c3c1C(O)OC3=O)OC2=O (stereo not given)
no

Queued: `C1=CN2C[n+]3ccc4ccccc4c3N=C2c2ccccc21`
no

# iterate: CCC1(O)C[C@H]2CN(CCCc3c([nH]c4ccccc34)[C@@](C(=O)OC)(c3cc4c(cc3OC)N(C)C3[C@](O)(C(=O)OC)[C@H](OC(C)=O)[C@]5(CC)C=CCN6CC[C@]43[C@H]65)C2)C1 (stereo not given in full)
no

// same read-out, input: `C[C@H](CCC(=O)O)[C@H]1CC[C@H]2[C@@H]3[C@H](O)C[C@@H]4C[C@H](O)CC[C@]4(C)[C@H]3C[C@H](O)[C@]12C`
no

For CN(Cc1cnc2nc(N)nc(N)c2n1)c1ccc(C(=O)NC(CCC(=O)O)C(=O)O)cc1 (stereo not given) then?
yes

Also need `CCCCCCCCCCCCCCCCCCC1=C(O)C(=O)C=C(OC)C1=O` , thanks.
no

Now give it for `O=c1c2cc(I)ccc2nc(-c2cccs2)n1/N=C/c1ccccc1` too.
no

Lookup Cc1ccc(O)c(C2=NNC(c3cccc(Cl)c3)C2)c1 (stereo not given)
no

---

Tested on: RXF 393
Experimental Protocol: NCI tumour cell line growth inhibition, 48 h
Calls of active or inactive are those of the source. Cut-off read from the data, not from the text of the source: active = GI50 up to about 1.1 µM and inactive = higher.
Give one outcome, nothing more. List: active, inactive

Could you kindly confirm the outcome this assay logged for `COC(=O)NC1=NNC(=O)c2ccccc2N1` ?
inactive

Entry to check: `CCc1nc2ccccc2c(=O)n1/N=C(\N=N\c1ccc(Cl)cc1)c1ccc(N(C)C)cc1`
inactive

// same read-out, input: `COC(=O)Nc1nc2ccc(S(=O)(=O)SC)cc2[nH]1`
inactive

// repeat for COCCOCCOCCOc1ccc(C(C#N)N(CCc2ccccc2)C(=O)c2cc(C(=O)N(CCc3ccccc3)C(C#N)c3ccc(OCCOCCOCCOC)cc3)cc(C(=O)N(CCc3ccccc3)C(C#N)c3ccc(OCCOCCOCCOC)cc3)c2)cc1 (centres undefined) and report
inactive

Let us now turn to `O=S1(=O)NN=C(NCc2ccc(F)cc2)c2ccccc21`
inactive

Please answer likewise for `CC1=C[C@]2(O)C(=O)[C@H](C)C[C@H]3[C@@H](CC[C@@](C)(O)/C=C\2C1=O)C3(C)C`
inactive

Next record, please: `CC(=O)Oc1ccccc1/C=C/C(=O)/C=C/c1ccccc1OC(C)=O`
active

Another molecule to look at: `CCCCc1ccc(Nc2nc(Cl)c3[nH]cnc3n2)cc1`
inactive

Thanks! And `CC(C)(C)C=C=C(C(C)(C)C)P(=O)(O)O` ?
inactive
